Here the recorded growth is given for each entry.
System: PC-3 prostate
TEST_SUMMARY: NCI-60 one-dose screen, 48 h (100 = growth as untreated, 0 = no growth, -100 = all killed)
ASSAY_CONTEXT: 10 µM
This is part of a sample that, as a whole, favours compounds with a hit. Of some 83,000 tested, about 20% had one in any assay.
Your answer should be a plain number; it is taken to be in %.

Example molecules with recorded growth:
| MOLECULE | growth (%) |
| --- | --- |
| O=C(Nc1ccc(OS(=O)(=O)c2ccccc2)cc1)C1CCCCC1 | 72.7 |
| O=S(=O)(Oc1ccc(-c2ccc3sccc3c2)cc1)c1ccccc1 | 91 |
| O=C1NC(=O)c2c(CCCSc3nc4ccccc4c(=O)n3CCc3ccccc3)cccc21 | 88.9 |
| Nc1nc(Cl)nc2c1ncn2C1O[C@H](CO)[C@@H](O)[C@@H]1F (stereo partly specified) | 60.5 |
| IC(I)I | 109 |

Return growth for the following molecule: C[C@@H](C[C@H](CCO)c1ccccc1)c1ccc2ccccc2c1
-89.2

Read the entry CCN(CC)CCOc1cccc2c1C(=O)c1ccccc1C2=O and write its reported growth.
83.5
